molecular target: Nucleoside diphosphate kinase B (Homo sapiens, UniProt P22392); test: Binding affinity to N-terminal NT-647-NHS labeled NM23-H2 (unknown origin) after 30 mins by MST analysis
Sequence (P22392 whole entry): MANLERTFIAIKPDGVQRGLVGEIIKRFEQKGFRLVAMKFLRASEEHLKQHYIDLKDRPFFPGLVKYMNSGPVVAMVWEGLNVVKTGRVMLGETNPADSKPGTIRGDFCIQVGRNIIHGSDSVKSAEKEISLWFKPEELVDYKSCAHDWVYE
pKd: −log10 of the molar value.
ASSAY READOUT: pKd

                                  cpd_smiles  recorded_result
 0  O=C(NCCCN1CCCC1)c1ccc(/C=C2\CCn3c2nc2cc(NCCN4CCCC4)c(F)cc2c3=O)cc1             4.74
 1  C#CCOc1ccc(/C=C2\CCn3c2nc2cc(NCCCN(C)C)c(F)cc2c3=O)cc1             5.05
 2  CCN(CC)CCCNc1cc2nc3n(c(=O)c2cc1F)CC/C3=C\c1ccc(C(F)(F)F)cc1             4.23
 3  C#CCOc1ccc(/C=C2\CCn3c2nc2cc(NCCN(C)C)c(F)cc2c3=O)cc1             4.56
 4  O=c1c2cc(F)c(NCCN3CCCCC3)cc2nc2n1CC/C2=C\c1ccc(OCc2ccccc2)cc1O             5.12
 5  CCN(CC)CCCNc1cc2nc3n(c(=O)c2cc1F)CC/C3=C\c1ccc(OCc2ccccc2)cc1O             5.47
 6  CC(C)Oc1ccc(/C=C2\CCn3c2nc2cc(NCCCN(C)C)c(F)cc2c3=O)cc1             4.81
 7  COc1cc(/C=C2\CCn3c2nc2cc(NCCCN(C)C)c(F)cc2c3=O)cc(OC)c1O             4.78
 8  CC(=O)Oc1ccc(/C=C2\CCn3c2nc2cc(NCCCN(C)C)c(F)cc2c3=O)cc1             4.72
 9  O=c1c2cc(F)c(NCCCN3CCOCC3)cc2nc2n1CC/C2=C\c1ccc(OCc2ccccc2)cc1             4.65
10  CCN(CC)CCCNc1cc2nc3n(c(=O)c2cc1F)CC/C3=C\c1ccc(/C=C/c2ccccn2)cc1             4.68
11  COc1cc(/C=C2\CCn3c2nc2cc(NCCCN4CCOCC4)c(F)cc2c3=O)cc(OC)c1OC             4.63
12  CN(C)CCNc1cc2nc3n(c(=O)c2cc1F)CC/C3=C\c1ccc(C=O)cc1             4.17
13  CCN(CC)CCCNc1cc2nc3n(c(=O)c2cc1F)CC/C3=C\c1ccc(OCc2ccccc2)c(O)c1             4.59
14  CCN(CC)CCCNc1cc2nc3n(c(=O)c2cc1F)CC/C3=C\c1ccc(OCc2ccccc2)cc1             4.69

###

molecular target: UniProt P22392; assay: Binding affinity to NM23-H2 (unknown origin) assessed as ratio of Kd for protein interaction with biotin-labeled Pu22 c-myc G-quadruplex DNA in presence and absence of compound after 1 hr by ELISA
Listed here: items and their measured Ratio.
ASSAY READOUT: Ratio

In [3]: df
Out[3]:
                                 cpd_smiles  recorded_result
0  CCN(CC)CCCNc1cc2nc3n(c(=O)c2cc1F)CC/C3=C\c1ccc(/C=C/c2ccccn2)cc1       2.1 to 2.6
1  CCN(CC)CCCNc1cc2nc3n(c(=O)c2cc1F)CC/C3=C\c1ccc(N(CC)CC)cc1O       2.1 to 2.6
2  CN(C)CCNc1cc2nc3n(c(=O)c2cc1F)CC/C3=C\c1ccc(OCc2ccccc2)cc1O              > 3
3  CCN(CC)CCCNc1cc2nc3n(c(=O)c2cc1F)CC/C3=C\c1ccc(N(CC)CC)cc1       2.1 to 2.6
4  CN(C)CCCNc1cc2nc3n(c(=O)c2cc1F)CC/C3=C\c1ccc(OCc2ccccc2)c(O)c1              > 3
5  O=c1c2cc(F)c(NCCN3CCCCC3)cc2nc2n1CC/C2=C\c1ccc(OCc2ccccc2)cc1O              > 3
6  O=c1c2cc(F)c(NCCCN3CCOCC3)cc2nc2n1CC/C2=C\c1ccc(OCc2ccccc2)cc1       2.1 to 2.6
